Origin of the recorded values: the MegaScale stability set (Tsuboyama et al. 2023)

B1: HEEH_KT_rd6_0007 (parent)
chain: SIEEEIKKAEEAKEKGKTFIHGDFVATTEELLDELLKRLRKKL

Variants of: B1
Procedure summary: folding stability dG (cDNA display proteolysis); higher = more stable
Conditions: PBS, room temperature
Quantity name: folding stability dG (kcal/mol)
Output spec: scalar in kcal/mol, unitless text.

Some solved entries appear below for comparison.
[[record]]
variant = "D33M"
quantity_name = "folding stability dG"
quantitative_readout = 1.17

[[record]]
variant = "L39S"
quantity_name = "folding stability dG"
quantitative_readout = 0.093

[[record]]
variant = "E4P"
quantity_name = "folding stability dG"
quantitative_readout = 0.777


Exercise: Name the recorded folding stability dG of the variant listed here: `E30G`
Key: 0.9

Exercise: Name the recorded folding stability dG of the variant listed here: `L39K`
Key: 0.102

Exercise: Name the recorded folding stability dG of the variant listed here: `R40N`
Key: 0.359

Exercise: Name the recorded folding stability dG of the variant listed here: `E10P`
Key: 0.607

Exercise: Name the recorded folding stability dG of the variant listed here: `T18I`
Key: 1.67
